Data origin: ChEMBL document CHEMBL1138936

assay: Clearance in rat at 0.5 mg/kg, iv; type: ADME, organism-based; design: dose 0.5 mg/kg, route intravenous; details: in vivo
Readout: clearance (mL/min/kg)
API: value field is a number in mL/min/kg; no unit string.

Q) Need clearance, item CC(C)c1c(NC(=O)Nc2ccc(Cl)cc2)c(=O)n(-c2ccccc2)n1C
A) 2.1

---

assay: Protein binding in mouse plasma; assay type: ADME, organism-based; details: read-out: PPB (converted)
Readout: fraction unbound
Enter the number alone.

Q) Need fraction unbound, item CC(C)c1c(NC(=O)Nc2ccc(Cl)cc2)c(=O)n(-c2ccccc2)n1C
A) 0.021

---

Target: N-formyl peptide receptor 2 (Homo sapiens)
Sequence (P25090 whole entry): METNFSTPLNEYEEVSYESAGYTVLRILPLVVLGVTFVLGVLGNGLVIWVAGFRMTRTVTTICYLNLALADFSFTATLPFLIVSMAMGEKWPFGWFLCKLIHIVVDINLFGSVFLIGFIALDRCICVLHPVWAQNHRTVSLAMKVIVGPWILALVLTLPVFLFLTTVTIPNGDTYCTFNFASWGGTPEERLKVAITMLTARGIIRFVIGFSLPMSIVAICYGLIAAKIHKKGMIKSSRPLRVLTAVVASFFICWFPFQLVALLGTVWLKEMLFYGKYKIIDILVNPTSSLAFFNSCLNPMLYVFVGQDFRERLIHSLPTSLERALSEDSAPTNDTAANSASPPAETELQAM
Assay: Activity at human FPRL1-mediated calcium mobilization in CHO cells
Format: functional, cell-based
Readout: pEC50
Keep in mind that pEC50 stands for -log10 of concentration in molar terms.

Q) Need pEC50, item CC(C)c1c(NC(=O)Nc2ccc(Cl)cc2)c(=O)n(-c2cnc3ccccc3c2)n1C
A) 7.10

Q) Need pEC50, item Cc1c(NC(=O)Nc2ccc(Br)cc2)c(=O)n(-c2ccccc2)n1C
A) 7.05

Q) Need pEC50, item CCc1c(NC(=O)Nc2ccc(Cl)cc2)c(=O)n(-c2ccccc2)n1C
A) 6.85

Q) Need pEC50, item CSc1ccc(NC(=O)Nc2c(C(C)C)n(C)n(-c3cnc4ccccc4c3)c2=O)cc1
A) 7.52

Q) Need pEC50, item COc1ccc(NC(=O)Nc2c(C)n(C)n(-c3ccccc3)c2=O)cc1
A) 5.56

Q) Need pEC50, item CSc1ccc(NC(=O)Nc2c(C(C)C)n(C)n(-c3cncnc3)c2=O)cc1
A) 7.37

Q) Need pEC50, item Cc1c(NC(=O)Nc2ccc(Cl)cc2)c(=O)n(-c2ccccc2)n1C
A) 6.31

Q) Need pEC50, item Cc1c(NC(=O)Nc2ccc(C(F)(F)F)cc2)c(=O)n(-c2ccccc2)n1C
A) 7.00

Q) Need pEC50, item CCc1ccc(NC(=O)Nc2c(C)n(C)n(-c3ccccc3)c2=O)cc1
A) 6.11

Q) Need pEC50, item CC(C)c1c(NC(=O)Nc2ccc(Cl)cc2)c(=O)n(C2=NCCS2)n1C
A) 6.27

Q) Need pEC50, item Cc1ccc(NC(=O)Nc2c(C)n(C)n(-c3ccccc3)c2=O)cc1
A) 5.90

Q) Need pEC50, item Cc1ccc(NC(=O)Nc2c(C(C)C)n(C)n(-c3ccccc3)c2=O)cc1F
A) 7.09

Q) Need pEC50, item CCc1c(NC(=O)Nc2ccc(C)c(F)c2)c(=O)n(-c2ccccc2)n1C
A) 6.51

Q) Need pEC50, item Cc1c(NC(=O)Nc2ccc(F)cc2)c(=O)n(-c2ccccc2)n1C
A) 5.31

Q) Need pEC50, item CCn1c(C(C)C)c(NC(=O)Nc2ccc(C)c(F)c2)c(=O)n1-c1ccccc1
A) 7.00

Q) Need pEC50, item Cc1c(NC(=O)Nc2ccc3c(c2)OCO3)c(=O)n(-c2ccccc2)n1C
A) 5.23
